# ELISA absorbance at 450 nm listing for each entry below
- measurement.target: T1, recombinant human DLL4 (Cat# 1506-D4/CF, R&D Systems) (human, UniProt Q9NR61 27-529)
- T1 construct: Bought protein; also called hDLL4; rHuman DLL4
- measurement.notes: ELISA, DLL4 coated, Fab 20 nM

- binder: "Fab VH5-51_IGHD5-18*01>3_IGHJ4*01 G100K/G104T G24T/S28R/G35V & V3-4_IGLJ1*01 (Fab, V domains shown, Fab made in E. coli: VH on CH1 with His6 and Flag tags (Plasmid A), VL on lambda CL (Plasmid E); also called H: KT TRV & L: wt) VH: EVQLVQSGAEVKKPGESLKISCKTSGYRFTSYWIVWVRQMPGKGLEWMGIIYPGDSDTRYSPSFQGQVTISADKSISTAYLQWSSLKASDTAMYYCARRKYSYTYDYFDYWGQGTLVTVSS VL: QTVVTQEPSFSVSPGGTVTLTCGLSSGSVSTSYYPSWYQQTPGQAPRTLIYSTNTRSSGVPDRFSGSILGNKAALTITGAQADDESDYYCVLYMGSGISYVFGTGTKVTVL"
  ELISA absorbance at 450 nm, A450: 0.054
- binder: "Fab VH5-51_IGHD5-18*01>3_IGHJ4*01 G100K/G104T G24T/S28R/G35V & V3-4_IGLJ1*01 M94R/S96M (Fab, V domains shown, Fab made in E. coli: VH on CH1 with His6 and Flag tags (Plasmid A), VL on lambda CL (Plasmid E); also called H: KT TRV & L: RM; KT TRV-V3-4 RM) VH: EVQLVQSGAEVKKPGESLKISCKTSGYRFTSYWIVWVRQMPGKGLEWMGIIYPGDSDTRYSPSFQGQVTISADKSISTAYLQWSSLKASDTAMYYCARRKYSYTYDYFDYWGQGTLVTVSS VL: QTVVTQEPSFSVSPGGTVTLTCGLSSGSVSTSYYPSWYQQTPGQAPRTLIYSTNTRSSGVPDRFSGSILGNKAALTITGAQADDESDYYCVLYRGMGISYVFGTGTKVTVL"
  ELISA absorbance at 450 nm, A450: 0.122
- binder: "Fab VH5-51_IGHD5-18*01>3_IGHJ4*01 G100K/G104T G24A/S28R/G35V & V3-4_IGLJ1*01 (Fab, V domains shown, Fab made in E. coli: VH on CH1 with His6 and Flag tags (Plasmid A), VL on lambda CL (Plasmid E); also called H: KT ARV & L: wt) VH: EVQLVQSGAEVKKPGESLKISCKASGYRFTSYWIVWVRQMPGKGLEWMGIIYPGDSDTRYSPSFQGQVTISADKSISTAYLQWSSLKASDTAMYYCARRKYSYTYDYFDYWGQGTLVTVSS VL: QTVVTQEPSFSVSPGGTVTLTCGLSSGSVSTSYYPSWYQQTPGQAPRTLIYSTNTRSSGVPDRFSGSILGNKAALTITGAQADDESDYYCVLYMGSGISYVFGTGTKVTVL"
  ELISA absorbance at 450 nm, A450: 0.054
